Target: Polyunsaturated fatty acid 5-lipoxygenase (Rattus norvegicus, UniProt P12527)
Sequence (P12527 whole entry): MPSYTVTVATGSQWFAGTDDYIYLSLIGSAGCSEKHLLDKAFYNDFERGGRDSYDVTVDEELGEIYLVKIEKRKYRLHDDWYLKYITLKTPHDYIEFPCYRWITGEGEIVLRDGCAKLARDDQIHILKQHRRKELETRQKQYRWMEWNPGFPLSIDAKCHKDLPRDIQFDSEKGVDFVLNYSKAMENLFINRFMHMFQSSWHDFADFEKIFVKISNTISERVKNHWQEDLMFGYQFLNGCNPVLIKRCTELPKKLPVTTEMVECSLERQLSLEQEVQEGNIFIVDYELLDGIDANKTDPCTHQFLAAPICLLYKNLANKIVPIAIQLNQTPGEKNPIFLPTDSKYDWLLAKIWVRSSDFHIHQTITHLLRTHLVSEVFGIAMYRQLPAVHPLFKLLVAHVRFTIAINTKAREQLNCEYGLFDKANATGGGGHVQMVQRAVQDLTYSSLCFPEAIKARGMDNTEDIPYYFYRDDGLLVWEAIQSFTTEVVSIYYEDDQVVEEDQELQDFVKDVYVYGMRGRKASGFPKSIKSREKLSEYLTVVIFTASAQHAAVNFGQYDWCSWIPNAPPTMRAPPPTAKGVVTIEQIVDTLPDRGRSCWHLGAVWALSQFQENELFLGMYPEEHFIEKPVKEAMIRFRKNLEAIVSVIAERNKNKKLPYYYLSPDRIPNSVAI
Assay: In vitro for inhibition of LTB4 (leukotriene B4) production in isolated rat polymorphonuclear leukocytes (PMNs).
Type: functional
Lab note - cut at 10 µM for IC50: class 1 if strictly below, class 0 if not.

# compound, categoryLabel
records = [
    ("CCCCCC(=O)c1ccc(OCc2cccc(NC(=O)CCC(=O)OC)c2)cc1OC", "class 1"),
    ("COC(=O)CC(=O)Nc1cccc(COc2ccc(C(C)=O)c(F)c2)c1", "class 0"),
    ("COC(=O)C1CC(=O)N(c2cccc(COc3ccc(C(C)=O)c(F)c3)c2)C1 (centres undefined)", "class 0"),
    ("COC(=O)CCCC(=O)Nc1cccc(COc2ccc(C(C)=O)c(O)c2)c1", "class 0"),
    ("COC(=O)C(=O)Nc1cccc(COc2ccc(C(C)=O)c(O)c2)c1", "class 0"),
    ("CCCCCCc1ccc(OCc2cccc(NC(=O)CC(=O)OC)c2)cc1OC", "class 1"),
    ("COC(=O)CC(=O)Nc1cccc(COc2ccc(C(C)=O)c(O)c2)c1", "class 0"),
    ("CCc1ccc(OCc2cccc(NC(=O)CCC(=O)OC)c2)cc1OC", "class 1"),
    ("CCCc1c(OCCCCc2nnn[nH]2)ccc(C(C)=O)c1O [TOMELUKAST]", "class 0"),
]
